MEASUREMENT TYPE: melting point (°C)
Could you give me the number in °C? Just the number is fine.

Consider the reported melting point for these compounds:
>>> quantitative_readout("Cc1cn(-c2ncc(Nc3cccc4c3nc(-c3ccc(F)cc3)n4C)cn2)cn1")
201.7
>>> quantitative_readout("COc1cc(Nc2cccc3c2nc(-c2ccc(F)cc2)n3C)ccc1-n1cnc(C)c1")
130.9

Proceeding to the next compound to report its melting point.
Entry under review: COc1cc(Nc2cccc3c2nc(-c2ccc(F)cc2)n3C)ccc1-n1cnc(C)n1 . Reported melting point?
185.2

====

List of pIC50 values.
- Tested on: Aβtotal
- EXPERIMENTAL DETAILS: Screening for γ-secretase-modulating activity, Method 2: Aβtotal Alphalisa on SKNBE2 cell supernatant
- Format: cell-based
- CONDITION: Method 2, Table 3c, SKNBE2 cells carrying APP 695 wild type, overnight incubation
pIC50: −log10 of the molar value.

Returns the measured pIC50 for the input compound. Input: COc1cc(-c2nc3c(Nc4ccc(-n5cnc(C)c5)c(OC)n4)cc(F)cc3n2C)ccc1Cl
< 5.00

Need pIC50 of COc1cccc(-c2nc3c(Nc4ccc(-n5cnc(C)c5)c(OC)c4)cccc3n2C)c1 , thanks.
< 5.00

Quick one: pIC50 of COc1nc(Nc2cccc3c2nc(-c2ccc(=O)n(C)c2)n3C)ccc1-n1cnc(C)c1 ?
< 5.00

====

- Tested on: Aβ42
- EXPERIMENTAL DETAILS: Screening for γ-secretase-modulating activity, Method 2: Aβ42 Alphalisa on SKNBE2 cell supernatant
- Format: cell-based
- CONDITION: Method 2, Table 3c, SKNBE2 cells carrying APP 695 wild type, overnight incubation
Readings of IC50 for the listed compounds
Respond with a number, then the unit of measure.

These recorded examples may help you get a feel for the data.
>>> result("COc1nc(Nc2cc(F)cc3c2nc(-c2ccccc2Cl)n3C)ccc1-n1cnc(C)c1 [Compound 151]")
"11 nM"
>>> result("COc1nc(Nc2cccc3c2nc(-c2cccc(N(C)C)c2)n3C)ccc1-n1cnc(C)c1 [Compound 173]")
"20 nM"
>>> result("COc1nc(Nc2cccc3c2nc(-c2cccc(F)c2F)n3C)ccc1-n1cnc(C)c1 [Compound 176]")
"23 nM"

The record that follows has no IC50 shown yet.
Field: IC50 (Aβ42). Entry: COc1ccc(-c2nc3c(Nc4ccc(-n5cnc(C)c5)c(F)c4)nc(C)cc3n2C)c(F)c1 [Compound 144]
145 nM

====

Overview of recorded pIC50 for various compounds
- Tested on: Notch-processing activity of the γ-secretase-complex
- Construct: average IC50 Notch cell-based assay (luciferase readout); other: N2-CHO/DL-CHO co-culture 16 h; five-point curve 3 μM-
- EXPERIMENTAL DETAILS: Notch cell-based assay (N2-CHO/DL-CHO co-culture, Dual-Glo luciferase)
- Design: species or system mouse
- CONDITION: N2-CHO/DL-CHO co-culture 16 h; read-out: average IC50 Notch cell-based assay (luciferase readout)
In simple prose, pIC50 is minus the logarithm base ten of a concentration in moles per litre.

>>> quantitative_readout("CC(NC(=O)Cc1cc(F)cc(F)c1)C(=O)NC(C(=O)OC(C)(C)C)c1ccccc1 (centres unmarked) [DAPT, reference compound]")
7.35

Under Notch-processing activity of the γ-secretase-complex: pIC50 value of CC(C)[C@H](O)C(=O)N[C@@H](C)C(=O)N[C@@H]1C(=O)N(C)CCc2ccccc21 [Semagacestat, reference compound] ?
7.40

====

- Test system: Aβtotal
- EXPERIMENTAL DETAILS: Screening for γ-secretase-modulating activity, Method 1: Aβtotal sandwich ELISA on SKNBE2 cell media
- Type: cell-based
- CONDITION: Table 3a; SKNBE2 cells carrying APP 695 wild type, 18 hours; XLfit, top/bottom fixed to 100 and 0, hill slope 1
MEASUREMENT TYPE: IC50

Use the examples below as a reference point.
>>> result("Cc1cn(-c2ccc(Nc3cccc4c3nc(-c3ccc(F)cc3)n4C)nn2)cn1")
"> 10 µM"
>>> result("COc1cc(Nc2cccc3oc(C4CCN(C(=O)OC(C)(C)C)CC4)nc23)ccc1-n1cnc(C)c1")
"> 3 µM"
>>> result("COc1cccc(-c2nc3c(Nc4ccc(-n5cnc(C)n5)c(OC)c4)cccc3n2C)c1")
"> 3 µM"
>>> result("CCOc1cc(C)c(-c2nc3c(Nc4ccc(-n5cnc(C)n5)c(OC)c4)cccc3o2)cc1C(C)C")
"26.4 µM"
>>> result("COc1cc(Nc2cccc3oc(CC(C)C)nc23)ccc1-n1cnc(C)n1")
"> 3 µM"

Query: IC50; subject: COc1cc(Nc2cccc3c2nc(C(C)(C)C)n3C)ccc1-n1cnc(C)c1
> 10 µM

Which IC50 is reported for this molecule? COc1cc(Nc2cccc3c2nc(-c2cccc(OC)c2Cl)n3C)ccc1-n1cnc(C)n1
> 3 µM

====

- System: Aβtotal
- EXPERIMENTAL DETAILS: Screening for γ-secretase-modulating activity, Method 2: Aβtotal Alphalisa on SKNBE2 cell supernatant
- Assay type: cell-based
- CONDITION: Method 2, Table 3c, SKNBE2 cells carrying APP 695 wild type, overnight incubation
Recorded IC50 for the following compounds

Worked cases, IC50 given:
>>> result("Cc1cn(-c2ccc(Nc3cc(F)cc4c3nc(-c3ccc(F)cc3)n4C(C)C)cc2F)cn1")
"> 10 µM"
>>> result("COc1nc(Nc2cccc3c2nc(-c2cccc(C#N)c2)n3C)ccc1-n1cnc(C)c1")
"> 10 µM"
>>> result("COc1cccc(-c2nc3c(Nc4ccc(-n5cnc(C)n5)cc4)cccc3n2C(C)C)c1")
"> 10 µM"
>>> result("COc1cccc(-c2nc3c(Nc4ccc(-n5cnc(C)c5)c(OC)n4)cccc3o2)c1")
"8.13 µM"
>>> result("COc1cc(Nc2cccc3c2nc(C2(c4ccc(Cl)cc4)CC2)n3C)ccc1-n1cnc(C)n1")
"> 10 µM"
>>> result("COc1cc(-c2nc3c(Nc4ccc(-n5cnc(C)c5)c(OC)n4)cccc3n2C)cc(C(F)(F)F)c1")
"9.12 µM"
>>> result("COc1ccc(-c2nc3c(Nc4ccc(-n5cnc(C)c5)c(F)c4)nc(C)cc3n2C)c(F)c1")
"> 10 µM"

Now, please, on to the next compound.
# lookup: IC50 of COc1nc(Nc2cccc3c2nc(-c2cc(F)cc(F)c2)n3C)ccc1-n1cnc(C)c1.Cl.Cl.O
3.72 µM

====

- Tested on: Aβtotal
- EXPERIMENTAL DETAILS: Screening for γ-secretase-modulating activity, Method 1: Aβtotal sandwich ELISA on SKNBE2 cell media
- Assay type: cell-based
- CONDITION: Homo sapiens; Table 3b; SKNBE2 cells carrying APP 695 wild type; non-linear regression of % of control; averaged IC50 values
MEASUREMENT TYPE: IC50

Illustrative cases are given below, each with its answer.
>>> result("COc1cc(Nc2cccc3c2nc(N2CCC(F)(F)CC2)n3C)ccc1-n1cnc(C)c1")
"> 3 µM"
>>> result("COc1cc(Nc2nccc3c2nc(-c2ccc(F)cc2)n3C)ccc1-n1cnc(C)c1")
"> 3 µM"
>>> result("COc1cc(Nc2cccc3[nH]c(-c4ccccc4C)nc23)ccc1-n1cnc(C)c1")
"> 3 µM"
>>> result("COc1cc(Nc2cccc3c2nc(CC2CCNCC2)n3C)ccc1-n1cnc(C)c1")
"> 3 µM"

What value of IC50 on Aβtotal does Cc1cn(-c2ncc(Nc3cccc4c3nc(-c3ccc(F)cc3)n4C)cn2)cn1 have?
> 3 µM

So what IC50 did COc1cc(Nc2cccc3c2nc(-c2ccc(F)cc2)n3C(C)C)ccc1-n1cnc(C)c1 get with Aβtotal?
> 1 µM

What reported IC50 corresponds to C=C(C)c1cc(Nc2ccc(-n3cnc(C)n3)c(OC)c2)c2nc(-c3ccc(F)cc3)n(C)c2n1 on Aβtotal?
> 3 µM

Enter reported IC50 observed with Aβtotal for COc1cc(Nc2cccc3oc(CC(C)C)nc23)ccc1-n1cnc(C)c1
> 10 µM

====

- System: Aβ42
- EXPERIMENTAL DETAILS: Screening for γ-secretase-modulating activity, Method 2: Aβ42 Alphalisa on SKNBE2 cell supernatant
- Format: cell-based
- CONDITION: Method 2, Table 3c, SKNBE2 cells carrying APP 695 wild type, overnight incubation
MEASUREMENT TYPE: pIC50
Note on pIC50: it is the negative log10 of concentration, concentration in mol/L.

>>> quantitative_readout("COc1cc(Nc2ccnc3c2nc(-c2ccc(F)cc2)n3C)ccc1-n1cnc(C)n1 [Compound 200]")
7.40
>>> quantitative_readout("COc1cc(Nc2cccc3c2nc(-c2ccccc2F)n3C)ccc1-n1cnc(C)c1 [Compound 66]")
7.68
>>> quantitative_readout("COc1cc(Nc2cccc3c2nc(C(C)c2ccc(Cl)cc2)n3C)ccc1-n1cnc(C)n1 (racemic) [Compound 122]")
6.43
>>> quantitative_readout("COc1cc(-c2nc3c(Nc4ccc(-n5cnc(C)c5)c(OC)n4)cccc3n2C(C)C)ccc1Cl [Compound 131]")
8.30
>>> quantitative_readout("COc1cc(Nc2cccc3c2nc(C2(c4ccc(Cl)cc4)CC2)n3C)ccc1-n1cnc(C)n1 [Compound 123]")
6.84
>>> quantitative_readout("COc1nc(Nc2cccc3c2nc(-c2ccc(OC(F)(F)F)cc2)n3C)ccc1-n1cnc(C)c1 [Compound 191]")
7.74

# input molecule: COc1cc(Nc2cccc3c2nc(C)n3Cc2ccccc2)ccc1-n1cnc(C)c1 [Compound 22] ; wanted: its pIC50
6.82
